B1: TPR t1 (parent)
chain: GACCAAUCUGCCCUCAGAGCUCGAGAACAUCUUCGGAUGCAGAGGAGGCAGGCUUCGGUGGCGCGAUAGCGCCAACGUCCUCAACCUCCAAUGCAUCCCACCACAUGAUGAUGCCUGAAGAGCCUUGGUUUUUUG

- Variants of: B1
- experiment summary: polymerase ribozyme fitness, log enrichment relative to wild type (log ratio); higher = more active; in vitro selection for triplet polymerase activity
observation type: polymerase ribozyme fitness (log ratio)
# output: bare number, no unit

Use the examples below as a reference point.
stdin: Recorded polymerase ribozyme fitness (log ratio) for GACCAAUAUGCCCUCAGAGCUCGAGAACAUCUUCGGAUGCAGAGGAGGCAGGCUUCGGUGGCGCGAUAGCGUCAACGUCCUCAACCUCCAAUGCAUCCCACCACAUGAUGAUGCCUGAAGAGCCUUGGUUUUAUG [C8A C72U U133A] , please?
stdout: -0.145

stdin: Recorded polymerase ribozyme fitness (log ratio) for GACCAAUCUGCCCUCAGAGAUCGAGAACAUCUUCGGAUGCCGAGGAGGCAGGCUUCGGUGGCGCGAUAGCGCCAACGUCCUAAACCUCCAAUGCAUCCCACCACAUGAUGAUGCCUGAAGAGCCUUGGUUUUUUG [C20A A41C C82A] , please?
stdout: -4.5

stdin: Recorded polymerase ribozyme fitness (log ratio) for GACCAAUCUGCCCUCAGAGCUCGAGAACUUCUUCGGAUGCAGCUGAGGCAGGGUUCGGUGGCGCGAUAGCGCCAACGUCCUCAACCUCCAAUGCAUCCCACCACAUGAUGUUGCCUGAAGAGCCUUGGUUUUUAG [A29U A43C G44U C53G A111U U134A] , please?
stdout: -0.68

stdin: Recorded polymerase ribozyme fitness (log ratio) for GACCAAUCUGCCCUCAGAGCUCGAGAACAUCUUCAGAUGCAGAGGAGGCAGGCUUCGGUGGCGCGAUAGCGCCCACGUCCUCAACCUCCAAUGCAUCCCAUCACAUGAUGAUGCCUGAAGAGCCUUGGUUUUUUG [G35A A74C C101U] , please?
stdout: -4.16

stdin: Recorded polymerase ribozyme fitness (log ratio) for GACCAAUCUGCCCUCAGAGCUCGAGAACAUCUUCGGAUGCAGAGGAGGCAGGCUUCGGUGACGCGAUAGCGCGAACGUCCUCAACCUCCAAUGCAUCCCACCACAUGAUGAUGCCUGAAGAGCCUUGGUUUUUUG [G61A C73G] , please?
stdout: -1.15

Others:
stdin: Recorded polymerase ribozyme fitness (log ratio) for GACCAAUCUGCCCUCAGAGCUCGAGAACAUCUUCGGAUGCAGAGGAGGUAGGCUUUGGUGGCGCGAUAGCGCCAACGUCCUCAACCUCCAAUGCAUCCCACCACAUGAGGAUGCCUGAAGAGCCUUGGUUUUUUG [C49U C56U U109G] , please?
stdout: -5.37

stdin: Recorded polymerase ribozyme fitness (log ratio) for GACCAAUCUACCCUCAGAGCUCGAGAACCUCUUCGGAUGCAGAGGAGGCAGGCUUCGGUGGCGCGAUAGCGCCAACGUCCUCAACCUCCAAUGCAUCCCACCACAUGAUGAUGCCUGAAGAGCCUUGGUUUUUUG [G10A A29C] , please?
stdout: -1.99

stdin: Recorded polymerase ribozyme fitness (log ratio) for GACCAAUCUGCCCUAAGAGUUCGAGAACAUCUUCGGAUGCAGAGGAGGCAGGCUUCGGUGGCGCGAUAGCGCCAACGUCCUCAACCUCCAAUGCAUCCCACCACAUGAUGAUGCCUGAAGAGCCUUGGUUUUUUG [C15A C20U] , please?
stdout: -3.39

stdin: Recorded polymerase ribozyme fitness (log ratio) for GACCAAUCUGCCCUCAGAGCUCGAGAACAUCUUCGGAUGCAGAGGAGGCAGGCUUCGGUGGCGCGAUAGCACCAACGUCCUCAACCUCGAAUGCAUCCCACCACAUGAUGAUGCCUGAAGAGCCUUGGUUUUUUG [G71A C89G] , please?
stdout: -2.03

stdin: Recorded polymerase ribozyme fitness (log ratio) for GACCAAUCUGCCCUCAGAGCUCGAGAACAUCUUCGGAUGCAGAGGAGGCAGGGUUCCGUGGCCCGAUAGCGCCAACGUCCUCAACCUCCAAUGCAUCCCACCACAUGAUGAUGCCUGAAGAGCCUUGGUUUUUUG [C53G G57C G63C] , please?
stdout: -0.44

stdin: Recorded polymerase ribozyme fitness (log ratio) for GACCAAUCUGCCCUCAGAGCUCGAGAACAUCUUCGGAUGCAGAGGAGGCAGGCUUCGGUGGCGCGAUAGCGACAACGUCCUCAACCUCCAAUGCAUCCCACCACAUAAUGAUGCCUGAAGAGCGUUGGUUUUUUG [C72A G107A C124G] , please?
stdout: -5.06

Numbers sourced from the RNAGym collection of RNA variant scans (doi:10.1073/pnas.2313332121).
